- experimental target: Serine/threonine-protein phosphatase PP1-alpha catalytic subunit (Homo sapiens)
- protocol notes: inhibition of human PP1 catalytic subunit – biochemical, fluorescence, OMFP substrate, single point, counter-screen for PP5 inhibitor project, primary screen (AID 2235)
- measurement setup: purified PP1alpha, at 6.7 µM, hits give high values
Screen size: about 320,000 compounds; about 2,800 (0.88%) were called active. The sample holds actives, similar compounds and a random draw of the others, so the mix is not that of the screen.
Here, each record is paired with measured inhibition data.

Example entries begin here.
Cc1cc(Nc2ccccc2)n(C(=O)c2ccc(N)cc2)n1: 22.3% (active)
COc1ccc(CNC(=O)C(c2ccc(O)cc2)N(Cc2ccco2)C(=O)c2snc(C(N)=O)c2N)cc1 (stereo not given): 4.97% (inactive)
Cc1cccc(N(Cc2ccccc2)C(=O)c2ccccc2F)c1: 0.11% (inactive)
O=C(Nc1ccc2ccccc2c1)Nc1ccc2snnc2c1: 13.3% (inactive)
C=CCn1c(SCc2csc(C)n2)nc2scc(-c3ccc(C)o3)c2c1=O: -0.82% (inactive)

IN: So what does the record say about inhibition for `C=CCNC(=O)CSc1nc2scc(-c3ccco3)c2c(=O)n1CC=C` ?
OUT: 3.47% (inactive)

IN: Next record, please: `COc1ccccc1NC(=O)CSc1nc2sc3c(c2c(=O)n1-c1ccccc1)CCN(C)C3`
OUT: 21.4% (active)

IN: Again, but for `CCn1c(=O)c(C(=O)NCc2ccc3c(c2)OCO3)c(O)c2ccccc21`
OUT: -4.95% (inactive)

IN: Note, next up: `COc1ccc(CN(C)C(=O)c2cc(-c3ccc(C)cc3C)nc3ccccc23)c(OC)c1OC`
OUT: 1.42% (inactive)

IN: Consider next the compound `O=C(/C=C/c1ccc(F)cc1)NC(=S)NNC(=O)c1cccnc1` in the same way.
OUT: 24.8% (active)

IN: Note, next up: `C=CCn1c(=S)[nH]c2scc(-c3ccco3)c2c1=O`
OUT: 18.8% (active)

IN: Repeat for the following compound: `CCOCCCNc1nc(-c2ccccc2)nc2ccccc12`
OUT: 3.36% (inactive)

IN: Follow-up item: `CC(C)(C)c1ccc(Oc2ccc(N)cc2)cc1`
OUT: 1.18% (inactive)

IN: Queued: O=C(NNC(=O)C(O)c1ccccc1)NC1CCCCC1 (stereo not given)
OUT: -1.2% (inactive)

IN: Another compound: `CCN(CC)CCCNC(=O)CCc1ccccc1`
OUT: -3.5% (inactive)

IN: Same for `CC(C)(C)Nc1nc(-c2ccccn2)nc2ccccc12`
OUT: 18.4% (active)

IN: And then `CN(C)c1nc(Nc2ccc(Cl)c(Cl)c2)nc(N(C)C)n1` , what is it?
OUT: 0.07% (inactive)
